# System: L6
# assay.info: Cytotoxicity against rat L6 cells assessed as reduction in cell viability incubated for 70 hrs by resazurin staining based inverted microscopic analysis
# assay.context: L6, 70 h
quantity.kind: pIC50
On this scale, pIC50 is minus log10 of a concentration expressed in M (mol/L).

1) CCCCOC(=O)/C=C/c1cc(O)c2c(c1)[C@H](C(=O)OCCCC)[C@@H](c1ccc(O)c(O)c1)O2 (racemic); 5.03
2) COc1cc([C@H]2Oc3ccc(Br)cc3[C@@H]2C)ccc1O (racemic); 4.88

Let us examine a further case.
Find the measured pIC50: item CC(C)NC(=O)/C=C/c1cc(O)c2c(c1)[C@H](C(=O)NC(C)C)[C@@H](c1ccc(O)c(O)c1)O2 (racemic) , target or system L6.
4.26

----------
# System: L6
# assay.info: Cytotoxicity against rat L6 cells assessed as reduction in cell viability incubated for 70 hrs by resazurin staining based inverted microscopic analysis
# assay.context: L6, 70 h
quantity.kind: pIC50
On this scale, pIC50 is minus log10 of a concentration expressed in M (mol/L).

1. COc1cc([C@H]2Oc3ccccc3[C@@H]2CO)ccc1O (racemic); 4.24

Look up pIC50 for this compound: CCOC(=O)/C=C/c1ccc2c(c1)[C@H](C(=O)OCC)[C@@H](c1ccc(O)cc1)O2 (racemic)
4.58

Let us now turn to COC(=O)/C=C/c1cc(OC)c2c(c1)[C@H](C(=O)OC)[C@@H](c1ccc(O)c(OC)c1)O2 (racemic)
5.61

Let us now turn to CC(=O)Oc1ccc([C@H]2Oc3ccc(/C=C/C(=O)OC(C)(C)C)cc3[C@@H]2C(=O)OC(C)(C)C)cc1 (racemic)
4.93

Let us now turn to O=Cc1ccc(-c2ccc3c(c2)[C@H](CO)[C@@H](c2ccc(O)cc2)O3)cc1 (racemic)
4.25

Let us now turn to COc1ccc([C@H]2Oc3ccc(/C=C/C(C)=O)cc3[C@@H]2C)cc1 (racemic)
5.03

Let us now turn to COc1ccc([C@H]2Oc3ccc(Br)cc3[C@@H]2C)cc1 (racemic)
4.22

----------
# assay.info: Selectivity index, ratio of IC50 for cytotoxicity against rat L6 cells to IC50 for antileishmanial activity against Leishmania donovani MHOM/ET/67/L82 amastigotes
# Format: toxicity, cell-based
# assay.context: read-out: Ratio IC50
Examples of molecules with documented selectivity ratio follow.
Response field accepts a number only; no unit should be typed.

1. COc1cc([C@H]2Oc3ccc(Cl)cc3[C@@H]2C)ccc1O (racemic); 3.4
2. COc1ccc([C@H]2Oc3ccc(/C=C/C(C)=O)cc3[C@@H]2C)cc1 (racemic); 0.5
3. CC(C)(C)OC(=O)/C=C/c1cc(F)c2c(c1)[C@H](C(=O)OC(C)(C)C)[C@@H](c1ccc(O)c(F)c1)O2 (racemic); 4.7
4. COc1cc([C@H]2Oc3c(OC)cc(/C=C/C(=O)NC(C)C)cc3[C@@H]2C(=O)NC(C)C)ccc1O (racemic); 1.4
5. COC(=O)/C=C/c1ccc2c(c1)[C@H](C(=O)OC)[C@@H](c1ccc(O)cc1)O2 (racemic); 3

Look up selectivity ratio for this molecule: OC[C@H]1c2cc(Br)ccc2O[C@@H]1c1ccc(O)cc1 (racemic)
1.2

Let us now turn to OC[C@H]1c2ccccc2O[C@@H]1c1ccc(O)c(Br)c1 (racemic)
2.6

Let us now turn to COc1ccc([C@H]2Oc3ccc(Br)cc3[C@@H]2C)cc1 (racemic)
1.9

Let us now turn to COc1cc(Br)c([C@H]2Oc3ccc(Br)cc3[C@@H]2CO)cc1OC (racemic)
1.8
